# System tested: DNA gyrase subunit A/DNA gyrase subunit B (Mycobacterium tuberculosis (strain ATCC 25618 / H37Rv), UniProt P9WG45+P9WG47)
# Sequence (P9WG45 whole entry): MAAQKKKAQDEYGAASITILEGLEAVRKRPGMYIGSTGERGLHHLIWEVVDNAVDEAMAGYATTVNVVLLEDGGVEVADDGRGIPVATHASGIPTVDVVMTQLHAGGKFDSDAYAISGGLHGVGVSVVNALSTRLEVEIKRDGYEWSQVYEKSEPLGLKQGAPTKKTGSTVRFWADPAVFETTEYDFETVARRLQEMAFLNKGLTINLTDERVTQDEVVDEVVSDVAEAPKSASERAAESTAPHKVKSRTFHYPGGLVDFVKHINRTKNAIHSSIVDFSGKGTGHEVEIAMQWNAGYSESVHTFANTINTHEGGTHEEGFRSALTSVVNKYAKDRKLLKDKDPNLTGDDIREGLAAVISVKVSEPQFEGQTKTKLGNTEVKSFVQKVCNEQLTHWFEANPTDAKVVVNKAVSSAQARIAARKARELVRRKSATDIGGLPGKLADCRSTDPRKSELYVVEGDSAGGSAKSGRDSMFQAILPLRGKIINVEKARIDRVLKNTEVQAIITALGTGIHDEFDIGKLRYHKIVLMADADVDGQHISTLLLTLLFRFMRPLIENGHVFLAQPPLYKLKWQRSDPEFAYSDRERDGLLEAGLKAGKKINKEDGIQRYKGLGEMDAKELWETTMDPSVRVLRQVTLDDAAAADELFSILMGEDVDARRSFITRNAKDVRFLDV
# Sequence (P9WG47 whole entry): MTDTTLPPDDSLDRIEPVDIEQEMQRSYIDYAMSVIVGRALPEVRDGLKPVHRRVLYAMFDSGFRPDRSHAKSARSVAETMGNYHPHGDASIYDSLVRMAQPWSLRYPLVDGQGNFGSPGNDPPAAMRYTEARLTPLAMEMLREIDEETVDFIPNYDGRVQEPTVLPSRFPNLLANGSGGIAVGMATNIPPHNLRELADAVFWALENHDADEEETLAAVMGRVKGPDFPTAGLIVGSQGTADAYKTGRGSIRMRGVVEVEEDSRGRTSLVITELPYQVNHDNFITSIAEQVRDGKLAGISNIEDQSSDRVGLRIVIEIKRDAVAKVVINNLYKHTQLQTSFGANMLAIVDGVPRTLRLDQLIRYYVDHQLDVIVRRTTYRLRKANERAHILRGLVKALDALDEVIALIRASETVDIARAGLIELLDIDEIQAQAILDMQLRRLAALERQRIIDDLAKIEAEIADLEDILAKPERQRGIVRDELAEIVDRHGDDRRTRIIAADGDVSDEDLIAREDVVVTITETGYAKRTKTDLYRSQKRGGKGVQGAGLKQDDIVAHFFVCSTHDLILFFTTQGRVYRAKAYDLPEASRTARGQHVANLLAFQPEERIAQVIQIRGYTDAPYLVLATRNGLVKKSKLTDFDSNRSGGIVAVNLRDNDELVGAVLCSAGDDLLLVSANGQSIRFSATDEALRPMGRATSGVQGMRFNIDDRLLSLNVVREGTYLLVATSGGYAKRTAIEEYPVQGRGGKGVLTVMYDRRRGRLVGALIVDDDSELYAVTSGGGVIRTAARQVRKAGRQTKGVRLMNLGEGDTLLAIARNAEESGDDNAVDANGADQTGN
# Assay details: Inhibition of Mycobacterium tuberculosis DNA gyrase activity
# Assay type: protein-complex assay
Observation type: pIC50
One number for each entry, as −log10 of the molar value.

For each listed entry, give its pIC50.
1. CNc1cc(F)cc2c1[nH]c1nc(CNC(=O)c3cocn3)nc(N3CCC(N)C3)c12 (configuration not stated)
2. CNc1cc(F)cc2c1[nH]c1nc(CNC(=O)c3cnco3)nc(N3CCC(N)C3)c12 (configuration not stated)

Reply:
8.30
8.00
